Measurement Target: rat liver ACC (Rattus norvegicus, UniProt P11497)
Flag rule - IC50 less than 20 nM flags t; the remaining entries get f.

Q: Does this molecule meet the criterion IC50 < 20 nM? Cc1cc(C(=O)N2CCC3(CC2)CC(=O)c2nn(C4CCC4)cc2O3)cc2cn[nH]c12 [1.039]
Ans: t

Q: For this molecule, is IC50 lower than 20 nM? Cc1n[nH]c2c(C)cc(C(=O)N3CCC4(CC3)CC(=O)c3nn(C5CCOC5)c(C)c3O4)cc12 (stereo not drawn) [1.015]
Ans: f

Q: # TODO verify IC50 < 20 nM strictly for this molecule: CC(C)n1cc2c(n1)C(=O)CC1(CCN(C(=O)c3ccc4cn(C)nc4c3)CC1)O2 [5.002]
Ans: f

Q: Quick check: does COc1ccc2cc(C(=O)N3CCC4(CC3)CC(=O)c3nn(C(C)(C)C)cc3O4)ccc2c1 [6.004] have IC50 under 20 nM?
Ans: f

Q: For Cc1nc2c(C)cc(C(=O)N3CCC4(CC3)CC(=O)c3nn(C(C)(C)C)cc3O4)cc2[nH]1 [3.003] , is the recorded IC50 below the cut-off of 20 nM?
Ans: t

Q: Dear reviewer, please state whether CCOc1cc(C(=O)N2CCC3(CC2)CC(=O)c2nn(CC)c(C)c2O3)cc2c(CC)n[nH]c12 [1.119] has IC50 strictly beneath 20 nM.
Ans: t

* * *

Measurement Target: recombinant human ACC2 (Homo sapiens)
Construct: a full length Cytomax clone of ACC2 was purchased from Cambridge Bioscience Limited; made in house; host or cells: CHO cells (tetracycline induction, pcDNA5 FRT TO-TOPO); purified on a Softlink Soft Release Avidin column
Sequence (O00763 whole entry): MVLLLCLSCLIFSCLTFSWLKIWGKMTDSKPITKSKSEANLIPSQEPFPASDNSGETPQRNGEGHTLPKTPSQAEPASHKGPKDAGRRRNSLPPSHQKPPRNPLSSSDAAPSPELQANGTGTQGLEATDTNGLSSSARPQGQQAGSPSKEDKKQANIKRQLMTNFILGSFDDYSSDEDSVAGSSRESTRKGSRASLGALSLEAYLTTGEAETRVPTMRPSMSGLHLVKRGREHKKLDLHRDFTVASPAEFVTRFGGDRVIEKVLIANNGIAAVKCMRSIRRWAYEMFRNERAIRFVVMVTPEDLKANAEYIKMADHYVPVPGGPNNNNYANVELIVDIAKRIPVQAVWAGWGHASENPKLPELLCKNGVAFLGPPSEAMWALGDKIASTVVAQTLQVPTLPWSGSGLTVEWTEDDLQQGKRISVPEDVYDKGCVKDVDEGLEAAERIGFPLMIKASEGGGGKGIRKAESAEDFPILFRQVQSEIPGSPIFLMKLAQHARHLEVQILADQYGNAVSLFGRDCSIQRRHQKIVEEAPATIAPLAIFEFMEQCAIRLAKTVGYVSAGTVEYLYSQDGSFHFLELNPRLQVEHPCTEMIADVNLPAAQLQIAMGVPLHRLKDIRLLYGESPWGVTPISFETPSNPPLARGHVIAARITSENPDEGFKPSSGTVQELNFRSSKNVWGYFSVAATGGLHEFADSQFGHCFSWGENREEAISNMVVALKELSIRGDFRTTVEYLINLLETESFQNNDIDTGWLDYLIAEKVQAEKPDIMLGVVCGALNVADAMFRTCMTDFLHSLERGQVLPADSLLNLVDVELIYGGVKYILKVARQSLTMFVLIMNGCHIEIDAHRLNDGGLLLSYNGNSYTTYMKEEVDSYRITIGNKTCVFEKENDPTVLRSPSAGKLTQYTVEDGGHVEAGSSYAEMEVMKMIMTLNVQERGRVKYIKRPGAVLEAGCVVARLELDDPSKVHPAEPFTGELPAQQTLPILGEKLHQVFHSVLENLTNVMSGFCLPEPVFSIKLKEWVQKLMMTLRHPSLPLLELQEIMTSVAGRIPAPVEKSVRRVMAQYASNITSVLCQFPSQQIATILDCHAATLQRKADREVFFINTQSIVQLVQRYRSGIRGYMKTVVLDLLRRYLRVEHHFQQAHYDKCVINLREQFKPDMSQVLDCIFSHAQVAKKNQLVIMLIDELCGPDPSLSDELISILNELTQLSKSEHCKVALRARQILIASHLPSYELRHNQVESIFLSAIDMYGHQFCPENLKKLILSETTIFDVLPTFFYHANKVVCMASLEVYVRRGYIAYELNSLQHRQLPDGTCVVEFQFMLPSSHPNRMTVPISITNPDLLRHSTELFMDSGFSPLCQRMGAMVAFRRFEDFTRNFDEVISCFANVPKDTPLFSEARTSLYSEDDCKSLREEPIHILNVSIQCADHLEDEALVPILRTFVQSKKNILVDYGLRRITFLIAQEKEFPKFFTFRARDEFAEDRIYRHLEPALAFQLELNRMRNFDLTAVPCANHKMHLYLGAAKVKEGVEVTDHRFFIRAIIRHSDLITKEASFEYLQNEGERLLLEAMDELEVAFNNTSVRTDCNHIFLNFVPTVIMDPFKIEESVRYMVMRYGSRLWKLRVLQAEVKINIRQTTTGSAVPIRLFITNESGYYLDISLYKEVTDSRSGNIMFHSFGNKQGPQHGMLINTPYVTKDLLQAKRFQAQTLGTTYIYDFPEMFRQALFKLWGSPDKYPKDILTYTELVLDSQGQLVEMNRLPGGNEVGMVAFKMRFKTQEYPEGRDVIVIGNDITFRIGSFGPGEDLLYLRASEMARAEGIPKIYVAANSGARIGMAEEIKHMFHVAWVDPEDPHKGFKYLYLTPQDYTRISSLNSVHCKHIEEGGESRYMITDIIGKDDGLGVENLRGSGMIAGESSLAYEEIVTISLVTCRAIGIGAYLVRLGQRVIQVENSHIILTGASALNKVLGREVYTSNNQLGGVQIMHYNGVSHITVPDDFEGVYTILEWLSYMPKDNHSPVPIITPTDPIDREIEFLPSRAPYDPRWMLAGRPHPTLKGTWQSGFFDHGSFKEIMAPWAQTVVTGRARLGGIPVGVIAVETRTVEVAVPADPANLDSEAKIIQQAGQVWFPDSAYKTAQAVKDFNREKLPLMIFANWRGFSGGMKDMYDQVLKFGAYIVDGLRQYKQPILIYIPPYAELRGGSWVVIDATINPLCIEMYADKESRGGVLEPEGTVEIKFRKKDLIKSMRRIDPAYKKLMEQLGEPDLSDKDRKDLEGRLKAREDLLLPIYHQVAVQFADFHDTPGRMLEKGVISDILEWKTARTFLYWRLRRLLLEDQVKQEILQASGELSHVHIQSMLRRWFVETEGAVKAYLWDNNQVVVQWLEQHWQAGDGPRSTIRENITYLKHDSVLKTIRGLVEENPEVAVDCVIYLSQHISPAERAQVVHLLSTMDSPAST
Method Summary: Measurement of human ACC2 inhibition (recombinant hACC2 Transcreener ADP detection FP assay)
Type: biochemical
Condition: recombinant hACC2 transcreener assay; read-out: rhACC2 IC50
Endpoint: log10 IC50 (log10 of the value in nM)
Scale: decimal log of IC50, IC50 in nM.

Q: Field request: log10 IC50 | item: "CC(C)n1cc2c(n1)C(=O)CC1(CCN(C(=O)c3ccc4sncc4c3)CC1)O2"
Ans: 1.96

Q: Reported log10 IC50, compound "Cc1n[nH]c2c(Cl)cc(C(=O)N3CCC4(CC3)CC(=O)c3nn(C(C)(C)C)cc3O4)cc12" : ____
Ans: 0.48

Q: Looking for the measured log10 IC50 of "CCn1cc2c(n1)C(=O)CC1(CCN(C(=O)c3cc(OC)c4[nH]ncc4c3)CC1)O2" , can you help?
Ans: 1.79

Q: Which log10 IC50 reading was recorded for the compound "CCn1nc2c(c1C)OC1(CCN(C(=O)c3ccc4sncc4c3)CC1)CC2=O" ?
Ans: 1.56

Q: Field request: log10 IC50 | item: CC(C)n1cc2c(n1)C(=O)CC1(CCN(C(=O)c3ccc4cn(C)nc4c3)CC1)O2 [5.001]
Ans: 2.83

Q: For "Cn1cnc2cc(C(=O)N3CCC4(CC3)CC(=O)c3nn(C(C)(C)C)cc3O4)ccc21" , what is its reported log10 IC50?
Ans: 1.76

Q: I am curious: what log10 IC50 value has been reported for "CCn1nc2c(c1C)OC1(CCN(C(=O)c3ccc4cn[nH]c4c3)CC1)CC2=O" ?
Ans: 1.91

Q: Using the record for "CCOc1cc(C(=O)N2CCC3(CC2)CC(=O)c2nn(C(C)(C)C)cc2O3)cc2c(CC)n[nH]c12" , report its log10 IC50.
Ans: 0.60

Source listed as patent US8318762B2.
